Target Desc: KRAS WT (Homo sapiens (Human), UniProt P01116)
Sequence (P01116-2 other isoform, or with tags, fused parts or gaps): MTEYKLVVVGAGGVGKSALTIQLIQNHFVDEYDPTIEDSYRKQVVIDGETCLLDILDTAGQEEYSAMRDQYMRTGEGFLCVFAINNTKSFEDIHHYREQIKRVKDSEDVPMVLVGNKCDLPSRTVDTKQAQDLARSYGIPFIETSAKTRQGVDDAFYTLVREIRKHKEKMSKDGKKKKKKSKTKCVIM
Test Name: KRAS WT Biochemical Assay, BODIPY-GDP Exchange TR-FRET (Example 502; 0.06 nM KRAS WT, 15 nM GDP, 300 nM SOS1, 120-minute incubation)
Reported Conditions: read-out: KRas HTRF IC50
pIC50: −log10 of the molar value.
Here, each record is paired with measured pIC50 data.
Property Label: pIC50

compound=C[C@@H]1Oc2nc(-c3c(C(F)(F)F)cc(F)c(N)c3F)c(F)c3nc(OC[C@@]45CCCN4C[C@H](F)C5)nc(c23)N2C[C@H]3CC[C@H](N3)[C@@H]12 property_label=pIC50 endpoint_value=7.15
compound="Cc1c(F)c(N)cc(-c2nc3c4c(nc(OC[C@@H]5CCC6C[C@@H](C(=O)N(C)C)CCN65)nc4c2F)N2C[C@H]4CC[C@H](N4)[C@H]2[C@H](C)O3)c1C(F)(F)F (single isomer, unassigned) [133 (isomer 2)]" property_label=pIC50 endpoint_value=7.84
compound="Cc1c(F)c(N)cc(-c2nc3c4c(nc(OC[C@]5(CC(F)F)CCCN5C)nc4c2F)N2C[C@H]4CC[C@H](N4)[C@H]2[C@H](C)O3)c1C(F)(F)F (single isomer, unassigned) [150 (isomer 2)]" property_label=pIC50 endpoint_value=7.19
compound=Cc1c(F)c(N)cc(-c2nc3c4c(nc(OC[C@@]56CCCN5C[C@H](F)C6)nc4c2F)N2C[C@H]4CC[C@H](N4)[C@H]2[C@H](C)O3)c1CC(F)F property_label=pIC50 endpoint_value=7.93

---

Target Desc: KRAS WT (Homo sapiens (Human), UniProt P01116)
Test Name: KRAS WT Biochemical Assay, BODIPY-GDP Exchange TR-FRET (Example 502; 0.06 nM KRAS WT, 15 nM GDP, 300 nM SOS1, 120-minute incubation)
Reported Conditions: read-out: KRas HTRF IC50
Description: Example 502: KRAS WT Biochemical Assay, BODIPY-GDP Exchange TR-FRET. Biochemical compound potencies are assessed by evaluating inhibition of SOS1-mediated nucleotide exchange in KRAS WT. In this assay, the SOS1-promoted exchange of fluorescently-labeled GDP (BOPIDY-GDP) is monitored by time-resolved fluorescence resonance energy transfer (TR-FRET). […] After a 120-minute incubation, the fluorescence is measured with excitation at 337 nm and emission at 490 and 520 nm. […]
pIC50: −log10 of the molar value.
Property Label: pIC50

molecule="Cc1c(F)c(N)cc(-c2nc3c4c(nc(OC[C@@]56CCC[C@@H]5N(C)CCC6)nc4c2F)N2C[C@H]4CC[C@H](N4)[C@H]2[C@H](C)O3)c1C(F)(F)F (single isomer, unassigned) [126 (isomer 2)]" property_label=pIC50 endpoint_value=8.09
molecule="Cc1c(F)c(N)cc(-c2nc3c4c(nc(OCC5CCC6CC(F)(F)CN56)nc4c2F)N2C[C@H]4CC[C@H](N4)[C@H]2[C@H](C)O3)c1C(F)(F)F (single isomer, unassigned) [153 (isomer 2)]" property_label=pIC50 endpoint_value=7.06
molecule=C[C@@H]1Oc2nc(-c3cc(N)cc(F)c3C(F)(F)F)c(F)c3nc(OC[C@@H]4CC[C@H]5COCCN54)nc(c23)N2C[C@H]3CC[C@H](N3)[C@@H]12 property_label=pIC50 endpoint_value=7.68
molecule="Cc1c(F)c(N)cc(-c2nc3c4c(nc(OC[C@]56COC[C@H]5CCN6C)nc4c2F)N2C[C@H]4CC[C@H](N4)[C@H]2[C@H](C)O3)c1C(F)(F)F (single isomer, unassigned) [134 (isomer 1)]" property_label=pIC50 endpoint_value=7.40
molecule=C[C@@H]1Oc2nc(-c3cc(N)cc4c3CCC4)c(F)c3nc(OC[C@@]45CCCN4C[C@H](F)C5)nc(c23)N2C[C@H]3CC[C@H](N3)[C@@H]12 property_label=pIC50 endpoint_value=6.91
molecule=Cc1c(F)c(N)cc(-c2nc3c4c(nc(OCC5(CN6CCO[C@@H](CF)C6)CC5)nc4c2F)N2C[C@H]4CC[C@H](N4)[C@H]2[C@H](C)O3)c1C(F)(F)F property_label=pIC50 endpoint_value=7.95
molecule="Cc1c(F)c(N)cc(-c2nc3c4c(nc(OC[C@@]56CCCN5C[C@H](F)[C@@H]6F)nc4c2F)N2C[C@H]4CC[C@H](N4)[C@H]2[C@H](C)O3)c1C(F)(F)F (single isomer, unassigned) [143 (isomer 3)]" property_label=pIC50 endpoint_value=7.33

Provenance of the data: patent US20240025919A1
